Assay: self-splicing fitness, log relative to wild type (ln ratio); higher = more splicing; Tetrahymena group I intron in knt gene, E. coli kanamycin selection, DiMSum; sequences stand for … in CUCUCU…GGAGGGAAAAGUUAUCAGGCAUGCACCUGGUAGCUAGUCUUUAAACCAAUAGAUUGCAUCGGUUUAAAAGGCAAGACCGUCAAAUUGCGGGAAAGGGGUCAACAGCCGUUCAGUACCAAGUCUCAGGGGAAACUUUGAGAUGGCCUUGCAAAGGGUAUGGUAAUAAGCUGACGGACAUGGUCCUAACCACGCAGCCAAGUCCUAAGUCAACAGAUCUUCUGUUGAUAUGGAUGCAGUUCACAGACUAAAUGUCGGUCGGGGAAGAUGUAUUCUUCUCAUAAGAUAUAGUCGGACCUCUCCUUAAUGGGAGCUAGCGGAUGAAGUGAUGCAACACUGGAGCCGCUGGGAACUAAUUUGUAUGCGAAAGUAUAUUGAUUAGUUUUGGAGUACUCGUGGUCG;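 also: selection with 25 µg/mL kanamycin versus none on LB agar overnight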
Details: 37 °C
Values of self-splicing fitness (ln) greater than or equal to -1 map to T; values below map to F.

construct-sequence | class-name
UGAAAGCAAUAUUACGGCGA | T
CAACAGCAAUAUUACGACGU | T
CUAAAGCAAUAUUACGUGGA | F
CAGUAGCAAUAUUACGAUCG | T
CAGCAGCAAUAUUACGGUAU | F
GAGAAGCAAUAUUACGUUUU | F
UGUCAGCAAUAUUACGCAAA | T
UAAUAGCAAUAUUACGAUAU | F
UCACAGCAAUAUUACGCGGA | F
CCUUAGCAAUAUUACGCGAG | F
GCAGAGCAAUAUUACGCUUA | F
GGCGAGCAAUAUUACGUCAA | F
GUACAGCAAUAUUACGGCUG | F
AUCCAGCAAUAUUACGGCGU | T
UGUCAGCAAUAUUACGAAGG | T
